MIC: recorded values
Tested on: Prot.mirab. A 1200
Assay: agar serial dilution test
Type: cell-based, Proteus mirabilis
Conditions: Proteus mirabilis, 24 h, agar serial dilution, 24 hours, 37° C.; read-out: minimal inhibitory concentration (MIC)
measurement kind: MIC (µg/mL)

| compound | system | qualifying sign | value |
| --- | --- | --- | --- |
| CCc1nc(CC(=O)N[C@@H]2C(=O)N3C(C(=O)O)=C(CSc4nnc(C)s4)CS[C@H]23)no1 [41 A] | Prot.mirab. A 1200 | = | 100 |
| Cc1noc(C(C(=O)N[C@@H]2C(=O)N3[C@@H]2SC(C)(C)[C@@H]3C(=O)O)c2ccccc2)n1 (mixture of isomers) [Example 6] | Prot.mirab. A 1200 | = | 100 |
| COCc1noc(CC(=O)N[C@@H]2C(=O)N3C(C(=O)O)=C(COC(C)=O)CS[C@H]23)n1 [Example 37] | Prot.mirab. A 1200 | = | 50 |
| Cc1noc(CC(=O)N[C@@H]2C(=O)N3C(C(=O)O)=C(CSc4nnnn4C)CS[C@H]23)n1 [Compound G] | Prot.mirab. A 1200 | = | 25 |
| CCc1noc(CC(=O)N[C@@H]2C(=O)N3[C@@H]2SC(C)(C)[C@@H]3C(=O)O)n1 [Example 11G] | Prot.mirab. A 1200 | = | 100 |
| CCc1noc(C(C)C(=O)N[C@@H]2C(=O)N3[C@@H]2SC(C)(C)[C@@H]3C(=O)O)n1 (stereo partly shown) [Example 11M] | Prot.mirab. A 1200 | > | 100 |
| Cc1noc(CC(=O)N[C@@H]2C(=O)N3[C@@H]2SC(C)(C)[C@@H]3C(=O)O)n1 [Example 11B] | Prot.mirab. A 1200 | > | 100 |
| CC1=C(C(=O)O)N2C(=O)[C@@H](NC(=O)Cc3nc(-c4c(Cl)cccc4Cl)no3)[C@H]2SC1 [Example 11E] | Prot.mirab. A 1200 | > | 100 |
| Cc1nc(CC(=O)N[C@@H]2C(=O)N3C(C(=O)O)=C(CN=[N+]=[N-])CS[C@H]23)no1 [Example 18] | Prot.mirab. A 1200 | = | 25 |
| CCc1noc(C(C)C(=O)N[C@@H]2C(=O)N3C(C(=O)O)=C(COC(C)=O)CS[C@H]23)n1 (mixture of isomers) [Example 11K] | Prot.mirab. A 1200 | > | 100 |
| CCc1noc(CC(=O)N[C@@H]2C(=O)N3C(C(=O)O)=C(COC(C)=O)CS[C@H]23)n1 [Example 11L] | Prot.mirab. A 1200 | = | 25 |
| CC1=C(C(=O)O)N2C(=O)[C@@H](NC(=O)Cc3nc(Cc4ccccc4)no3)[C@H]2SC1 [Example 7] | Prot.mirab. A 1200 | > | 100 |
| CC(=O)OCC1=C(C(=O)O)N2C(=O)[C@@H](NC(=O)C(C)c3nc(C)no3)[C@H]2SC1 (mixture of isomers) [Example 11I] | Prot.mirab. A 1200 | = | 25 |

====

Assay: acute toxicity in mice
Conditions: mouse, in vivo, ip; mice (Swiss), one intraperitoneal administration
Quick list: LD50 per entry.

| compound | LD50 |
| --- | --- |
| CC(=O)OCC1=C(C(=O)O)N2C(=O)[C@@H](NC(=O)Cc3nc(C)no3)[C@H]2SC1 | > 6000 mg/kg |
| CC(=O)OCC1=C(C(=O)O)N2C(=O)[C@@H](NC(=O)Cc3cccs3)[C@H]2SC1 [Cephalotin, reference compound] | > 6000 mg/kg |

====

System: Dipl.pneum. L 54
Experiment: agar serial dilution test
Format: cell-based, Diplococcus pneumoniae
Settings: Streptococcus pneumoniae; agar serial dilution, 24 hours, 37° C.; read-out: minimal inhibitory concentration (MIC)
Below is a list of entries, each paired with its recorded MIC value.

| compound | unit descriptor | MIC |
| --- | --- | --- |
| CC(=O)OCC1=C(C(=O)O)N2C(=O)[C@@H](NC(=O)Cc3nc(-c4c(C)cc(C)cc4C)no3)[C@H]2SC1 | µg/mL | 0.25 |
| Cc1nnc(SCC2=C(C(=O)O)N3C(=O)[C@@H](NC(=O)Cn4cnnn4)[C@H]3SC2)s1 [Cephazolin, reference compound] | µg/mL | 0.25 |
| CC(=O)OCC1=C(C(=O)O)N2C(=O)[C@@H](NC(=O)Cc3cccs3)[C@H]2SC1 [Cephalotin, reference compound] | µg/mL | 0.5 |
| Cc1nc(CC(=O)N[C@@H]2C(=O)N3C(C(=O)O)=C(CSc4nnnn4C)CS[C@H]23)no1 | µg/mL | 1.5 |
| Cc1noc(C(C)C(=O)N[C@@H]2C(=O)N3[C@@H]2SC(C)(C)[C@@H]3C(=O)O)n1 (mixture of isomers) [Example 11H] | µg/mL | 0.25 |
| CC(=O)OCC1=C(C(=O)O)N2C(=O)[C@@H](NC(=O)Cc3nc(C)no3)[C@H]2SC1 | µg/mL | 0.75 |
| C=CCNC(=O)Cc1nc(CC(=O)N[C@@H]2C(=O)N3C(C(=O)O)=C(COC(C)=O)CS[C@H]23)no1 | µg/mL | 1.5 |

====

Reported MIC, Bruc. Suis A 2126.

| substance smiles | MIC / µg/mL |
| --- | --- |
| Cc1nc(CC(=O)N[C@@H]2C(=O)N3C(C(=O)O)=C(CSc4nnnn4C)CS[C@H]23)no1 | 1 |
| Cc1noc(CC(=O)N[C@@H]2C(=O)N3C(C(=O)O)=C(CSc4nnnn4C)CS[C@H]23)n1 | 1 |
| CCc1nc(CC(=O)N[C@@H]2C(=O)N3C(C(=O)O)=C(CSc4nnc(C)s4)CS[C@H]23)no1 | 6 |
| Cn1nnnc1SCC1=C(C(=O)O)N2C(=O)[C@@H](NC(=O)Cc3nc(CC(=O)O)no3)[C@H]2SC1 | 1 |

====

Quick reference for MIC among some compounds
System: Staph.aureus A 321
Assay: agar serial dilution test
Type: cell-based, Staphylococcus aureus
Details: Staphylococcus aureus, A321, 24 h, agar serial dilution, 24 hours, 37° C.; read-out: minimal inhibitory concentration (MIC)
measurement kind: MIC

| compound | value |
| --- | --- |
| CC(=O)OCC1=C(C(=O)O)N2C(=O)[C@@H](NC(=O)Cc3nc(-c4c(Cl)cccc4Cl)no3)[C@H]2SC1 [Example 11C] | 0.12 µg/mL |
| Cc1nnc(SCC2=C(C(=O)O)N3C(=O)[C@@H](NC(=O)Cn4cnnn4)[C@H]3SC2)s1 [Cephazolin, reference compound] | 0.25 µg/mL |
| Cc1noc(C(C)C(=O)N[C@@H]2C(=O)N3[C@@H]2SC(C)(C)[C@@H]3C(=O)O)n1 (mixture of isomers) [Example 11H] | 0.25 µg/mL |

====

System: Esch.coli U 20
Assay: agar serial dilution test
Format: cell-based, Escherichia coli
Conditions: Escherichia coli, U20; agar serial dilution, 24 hours, 37° C.; read-out: minimal inhibitory concentration (MIC)
# maps each entry to its MIC
measurement kind: MIC (µg/mL)

| compound | unit descriptor | qualifying sign | value |
| --- | --- | --- | --- |
| CC(=O)OCC1=C(C(=O)O)N2C(=O)[C@@H](NC(=O)C(c3ccccc3)c3nc(C)no3)[C@H]2SC1 (stereo partly shown) [Compound B] | µg/mL | > | 100 |
| Cc1nc(CC(=O)N[C@@H]2C(=O)N3C(C(=O)O)=C(CSc4nnnn4C)CS[C@H]23)no1 [41 B] | µg/mL | = | 1.5 |
| CC(=O)OCC1=C(C(=O)O)N2C(=O)[C@@H](NC(=O)Cc3nc(-c4c(Cl)cccc4Cl)no3)[C@H]2SC1 [Example 11C] | µg/mL | > | 100 |
| CC1=C(C(=O)O)N2C(=O)[C@@H](NC(=O)Cc3nc(-c4c(Cl)cccc4Cl)no3)[C@H]2SC1 [Example 11E] | µg/mL | > | 100 |
| CC(=O)OCC1=C(C(=O)O)N2C(=O)[C@@H](NC(=O)Cc3nc(-c4c(C)cc(C)cc4C)no3)[C@H]2SC1 [Example 9] | µg/mL | > | 100 |
| CC1(C)S[C@@H]2[C@H](NC(=O)[C@H](N)c3ccccc3)C(=O)N2[C@H]1C(=O)O [Ampicillin, reference compound] | µg/mL | = | 3 |
| CC1(C)S[C@@H]2[C@H](NC(=O)Cc3nc(-c4c(Cl)cccc4Cl)no3)C(=O)N2[C@H]1C(=O)O [Example 11A] | µg/mL | > | 100 |
| Cc1nc(CC(=O)N[C@@H]2C(=O)N3[C@@H]2SC(C)(C)[C@@H]3C(=O)O)no1 [Example 13] | µg/mL | = | 50 |
| Cc1noc(C(C(=O)N[C@@H]2C(=O)N3[C@@H]2SC(C)(C)[C@@H]3C(=O)O)c2ccccc2)n1 (mixture of isomers) [Example 6] | µg/mL | = | 100 |
| Cc1noc(C(C)C(=O)N[C@@H]2C(=O)N3[C@@H]2SC(C)(C)[C@@H]3C(=O)O)n1 (mixture of isomers) [Example 11H] | µg/mL | ≥ | 100 |
| CC(=O)OCC1=C(C(=O)O)N2C(=O)[C@@H](NC(=O)Cc3cccs3)[C@H]2SC1 [Cephalotin, reference compound] | µg/mL | = | 3 |
| CC(=O)OCC1=C(C(=O)O)N2C(=O)[C@@H](NC(=O)Cc3nc(C)no3)[C@H]2SC1 [Example 10] | µg/mL | = | 6 |
| CCc1noc(C(C)C(=O)N[C@@H]2C(=O)N3C(C(=O)O)=C(COC(C)=O)CS[C@H]23)n1 (mixture of isomers) [Example 11K] | µg/mL | > | 100 |
